target: AMPK (A2/B1/G1) (Homo sapiens, UniProt P54619+P54646+Q9Y478); assay: AMPK kinase binding activity in activation mode (AC50); type: biochemical
Sequence (P54646 whole entry): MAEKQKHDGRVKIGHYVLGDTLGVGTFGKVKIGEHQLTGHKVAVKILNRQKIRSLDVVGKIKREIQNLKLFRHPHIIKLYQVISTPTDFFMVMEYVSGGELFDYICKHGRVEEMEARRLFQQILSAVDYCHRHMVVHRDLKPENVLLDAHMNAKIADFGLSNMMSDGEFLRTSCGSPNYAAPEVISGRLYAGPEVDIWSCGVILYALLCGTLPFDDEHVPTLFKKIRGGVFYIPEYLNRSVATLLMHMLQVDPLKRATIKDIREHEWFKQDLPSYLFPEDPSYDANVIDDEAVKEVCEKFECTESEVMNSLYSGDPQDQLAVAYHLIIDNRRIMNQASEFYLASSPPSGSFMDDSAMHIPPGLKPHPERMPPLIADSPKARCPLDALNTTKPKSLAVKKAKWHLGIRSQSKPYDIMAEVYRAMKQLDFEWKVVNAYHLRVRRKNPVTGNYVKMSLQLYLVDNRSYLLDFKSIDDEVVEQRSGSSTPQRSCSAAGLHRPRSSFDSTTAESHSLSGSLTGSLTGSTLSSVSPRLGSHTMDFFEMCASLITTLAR
Sequence (Q9Y478 whole entry): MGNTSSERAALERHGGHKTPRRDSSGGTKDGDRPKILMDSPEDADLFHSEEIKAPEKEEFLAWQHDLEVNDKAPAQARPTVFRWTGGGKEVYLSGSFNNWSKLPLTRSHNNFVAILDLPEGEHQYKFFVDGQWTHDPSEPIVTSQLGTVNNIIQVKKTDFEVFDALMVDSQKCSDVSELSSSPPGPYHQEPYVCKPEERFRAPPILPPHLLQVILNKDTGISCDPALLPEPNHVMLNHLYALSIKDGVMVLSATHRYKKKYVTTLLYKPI
Sequence (P54619 whole entry): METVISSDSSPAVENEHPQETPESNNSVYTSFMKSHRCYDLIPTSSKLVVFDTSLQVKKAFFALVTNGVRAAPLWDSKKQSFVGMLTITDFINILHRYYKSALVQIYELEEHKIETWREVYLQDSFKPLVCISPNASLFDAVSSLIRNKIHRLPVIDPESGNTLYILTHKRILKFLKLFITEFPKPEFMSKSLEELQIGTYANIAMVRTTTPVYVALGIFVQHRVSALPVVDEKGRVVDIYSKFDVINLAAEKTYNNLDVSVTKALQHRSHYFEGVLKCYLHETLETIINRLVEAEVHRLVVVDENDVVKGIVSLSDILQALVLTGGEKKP
PROPERTY: AC50

Some solved cases for reference:
>  <COMPOUND>
O=c1[nH]c(-c2c[nH]c3cc(F)c(-c4ccc(C5(O)COC5)cc4)c(F)c23)no1 [Compound I-13]

>  <AC50>
10 to 500 nM

$$$$
>  <COMPOUND>
COc1ccc(-c2cc3c(-c4noc(=O)[nH]4)c[nH]c3cc2F)c(OC)n1 [Compound I-14]

>  <AC50>
10 to 500 nM

$$$$

Prompt: Missing value: AC50, AMPK (A2/B1/G1) (Homo sapiens, UniProt P54619+P54646+Q9Y478), entry O=c1[nH]c(-c2c[nH]c3ccc(-c4ccc(C5(O)CCC5)cc4)cc23)no1 [Compound I-10] . Fill in?
Completion: 10 to 500 nM

Prompt: Repeat with COc1ccc(-c2c(F)cc3[nH]cc(-c4noc(=O)[nH]4)c3c2F)c(OC)n1 [Compound I-17]
Completion: 500 to 5000 nM

Prompt: Repeat with COc1ccc(-c2cc3c(-c4noc(=O)[nH]4)c[nH]c3cc2F)cn1 [Compound I-16]
Completion: 5000 to 7500 nM

* * *

Assay: Plasma and tissue concentration in high fat diet mice, day 36
Assay type: in vivo, mice (Mus musculus—C57BL-6)
Details: male, C57BL-6, mouse, liver, oral, 30 mg/kg, 3 hr, read-out: Liver
Method: Doses were 30 and 50 mg/kg and administered orally (p.o.) once a day (QD) for 36 days. Dose volume was 10 mL/kg, which was administered to male, 18-22-week-old mice (Mus musculus—C57BL-6) with body weight between 18-19.4 g each. Mice were grouped into 3 groups of 10. […] Plasma lipid profile: On day 34 total cholesterol levels, triglyceride, HDL, and LDL levels were detected. […] Cumulative food consumption was measured daily starting from day 1 onwards up to end of the study period. […]
PROPERTY: concentration at 3 h (µg/mL)
Give your result in µg/mL as a bare value.

Prompt: Value lookup for concentration at 3 h; key = `O=c1[nH]c(-c2c[nH]c3cc(F)c(-c4ccc(C5(O)CCC5)cc4)c(F)c23)no1`
Completion: 0.074

* * *

assay: Plasma and tissue concentration in high fat diet mice, day 36; format: in vivo, mice (Mus musculus—C57BL-6); settings: male, C57BL-6, mouse, liver, oral, 50 mg/kg, 1 hr, read-out: Liver
PROPERTY: concentration at 1 h (ng/mL)
Give your result in ng/mL as a bare value.

Prompt: Value lookup for concentration at 1 h; key = `O=c1[nH]c(-c2c[nH]c3cc(F)c(-c4ccc(C5(O)CCC5)cc4)c(F)c23)no1`
Completion: 80

* * *

experiment: Plasma and tissue concentration in high fat diet mice, day 36; type: in vivo, mice (Mus musculus—C57BL-6); settings: male, C57BL-6, mouse, heart, oral, 50 mg/kg, 3 hr, read-out: Heart
PROPERTY: concentration at 3 h (ng/mL)
Give your result in ng/mL as a bare value.

Prompt: Value lookup for concentration at 3 h; key = `O=c1[nH]c(-c2c[nH]c3cc(F)c(-c4ccc(C5(O)CCC5)cc4)c(F)c23)no1`
Completion: 36
